Provide the recorded TGI for the entries that follow.
Test system: BT-549 breast
Assay: NCI tumour cell line growth inhibition, 48 h
Numbers only, in µM.

                                   compound   study_target  recorded_number
0     Oc1cc2c3c(c1)c1cc4c(cc1c[n+]3CC2)OCO4  BT-549 breast              8.1
1  COc1ccc(-c2nc3sccn3c2/C(N)=N/C(=N)N)cc1OC  BT-549 breast             43.3
2          Cc1cc(I)cc(CN(C)CCCCN2CCCCC2)c1O  BT-549 breast             21.5
3  Cc1nc2ccccc2c(N)c1-c1cc(C)c2c(C)nc3ccccc3c2n1  BT-549 breast             2.46
4  Nc1ccccc1SC(C[N+](=O)[O-])c1ccc2c(c1)OCO2 (stereo unspecified)  BT-549 breast             15.2
5  O=c1[nH]cc(N=Cc2cc(Cl)cc(Cl)c2O)c(=O)[nH]1  BT-549 breast             94.9

Parameters: items (list). Returns: TGI for each item.
1. Cn1c2ccccc2c2c(Nc3ccccc3)c3ccccc3nc21
2. COc1cc(CNc2cnc3cc(N)cc(N)c3n2)cc(OC)c1

[47.8, 51.4]

----------
Test system: EKVX NSCLC
Assay: NCI tumour cell line growth inhibition, 48 h
Please respond with reported TGI for every item in the list.
One number for each entry, in µM.

>>> print(df.to_string())
                                   compound  value_kind  scale_unit  recorded_number
0  Cc1nc2ccccc2c(N)c1-c1cc(C)c2c(C)nc3ccccc3c2n1         TGI          µM             3.29
1  COc1cc(/C=N/NC(=O)c2ccc(C(F)(F)F)nc2Nc2ccc(Cl)cc2C)ccc1O         TGI          µM             12.4
2  N#CC1=C(N)N(c2ccccc2)C(c2ccco2)C1(C#N)C#N (stereo not given)         TGI          µM             73.3

Turning to the following compound.
// CCCCCN(CCCCC)CCCNc1c2c(nc3ccc(Cl)cc13)CCCC2 : TGI value = 13.6

----------
Test system: HCT-15 colon
Test: NCI tumour cell line growth inhibition, 48 h
Where a SMILES comes first, the peptide text is derived from it. [ ]: non-standard residue; d: D form. The star is where a group is joined. ξ: configuration not given here. X6 = FC(F)(F)c1cc(NC(=S)*)cc(C(F)(F)F)c1; ξF = NC(Cc1ccccc1)C(=O)O
For each entry below, report its TGI value.

Solved entries:
COMPOUND	TGI
Nc1ccccc1SC(C[N+](=O)[O-])c1ccc2c(c1)OCO2 (stereo not given)	10.3 µM
O=C(/C=C/C12c3ccccc3C(c3ccccc31)C1C(=O)NC(=O)C12)c1ccncc1 (stereo not given)	3.94 µM
C#Cc1ccc(-n2c(/C=C/c3ccc(C(F)(F)F)cc3)nc3ncccc3c2=O)cc1	3.68 µM
COC(=O)[C@H](Cc1c[nH]c2ccccc12)NP(=O)(O)OCC1C=CC(n2cc(C)c(=O)[nH]c2=O)O1 (stereo not given in full)	> 100 µM
CCc1ccc(CCN2CCCCC2)nc1	> 100 µM

Give TGI for all compounds that follow.
1. CCOC(=O)Nn1c(C)nnc1-c1ccccc1
2. CCOC(=O)C(NC(C)=O)(Nc1ccc(F)cc1)C(F)(F)F (stereo not given)
3. C[C@]12CC[C@H](O)CC1=CC[C@@H]1C2CC[C@]2(C)C(=O)N(N)C(=O)CC12 (stereo not given in full)
4. CCC1(O)CC2CC(=O)OC2C1O (stereo not given)

1: > 100 µM; 2: > 100 µM; 3: > 100 µM; 4: > 100 µM

Go through the list and state TGI for each entry.
1. COC(=O)[C@@H](NC(=O)CNC(=O)[C@H]1CCCN1C(=O)C(Cc1ccccc1)NC(=S)Nc1cc(C(F)(F)F)cc(C(F)(F)F)c1)C(C)C (stereo not given in full) (X6-[ξF][dP]GV-OMe)
2. CC(C)CC(=O)OC[n+]1ccc(-c2c(COC(=O)NC(C)C)c(COC(=O)NC(C)C)c3n2CCC3)cc1
3. Cc1ccsc1/C=N/Nc1ncccn1
4. CN(C)CC[N+]1=Nc2cccc3cccc(c23)N1
5. COc1ccc(C(=O)Cn2c(C(=O)c3ccccc3)nc(-c3ccc(OC)cc3)c2-c2ccc(OC)cc2)cc1
6. CN1CCN([C@H]2C[C@H]3[C@@H]4CC=C5C[C@@H](O)CC[C@]5(C)[C@H]4CC[C@]3(C)C2=O)CC1

1. 5.37 µM
2. > 100 µM
3. > 100 µM
4. > 100 µM
5. > 100 µM
6. > 100 µM

Batch lookup, TGI per entry.
1. COc1cc(/C=N/NC(=O)c2ccc(C(F)(F)F)nc2Nc2ccc(Cl)cc2C)ccc1O
2. COc1c(C)c(C/C=C(\C)CCCCO[Si](c2ccccc2)(c2ccccc2)C(C)(C)C)c(OC)c(OC)c1OC
3. Cc1ccc(N=Nc2ccc(N(CCC#N)CCC#N)cc2C)c(Br)c1
4. O=C(O)c1cccc2c1/C(=N/Nc1ccccc1)CC2
5. COc1cc([C@@H]2OCC3C(c4ccc5c(c4)OCO5)OCC32)cc(OC)c1OC (stereo not given in full)

1: 10.4 µM; 2: > 46.4 µM; 3: > 100 µM; 4: > 100 µM; 5: > 100 µM

----------
System: LOX IMVI melanoma
Assay: NCI tumour cell line growth inhibition, 48 h
VALUE KIND: GI50

                                   compound  value_kind   result
0  Cn1cc(C2=C(c3cn(C)c4ncccc34)C(=O)NC2=O)c2ccccc21        GI50  6.97 µM

Hey, can you go through the list below and give me GI50 for every item?
1. CCC(CO)Nc1nc2ccc(Cl)cc2c2ccccc12 (stereo not drawn)
2. Clc1ccc2c(NCCCCNc3nc(N4CCCCC4)nc4ccccc34)ccnc2c1
3. O=C(Nc1ccccc1)NS(=O)(=O)c1ccc(-n2nc3c(c2-c2cccs2)Cc2ccccc2-3)cc1

6.17 µM
1.5 µM
12 µM

Count: 4. Required value per item: GI50.
1. O=C([O-])CC(=O)[O-].O=C([O-])CC(=O)[O-].[K+].[Pd+2]
2. O=C1CC(c2ccc3c(c2)OCO3)Nc2ccccc21 (stereo not drawn)
3. O=S(=O)(NC1=NCCN1C(=S)SN1CCn2c1nsc2=S)c1ccc(OC(F)(F)F)cc1
4. Cc1ccc(NC2=C(Cl)C(=O)N(Cc3ccccc3)C2=O)cc1O

["> 100 µM", "5.91 µM", "8.6 µM", "18 µM"]

----------
So I've got a bunch of compounds here, and I need their TGI values.
System: RPMI-8226 leukemia
Assay: NCI tumour cell line growth inhibition, 48 h

# annotated cases, reported TGI shown
COMPOUND	RESULT
O=C(Nc1ccc(C2=NCCN2)cc1)c1cncc(C(=O)Nc2ccc(C3=NCCN3)cc2)c1	> 100 µM
Cn1cc(C2=C(c3cn(C)c4ncccc34)C(=O)NC2=O)c2ccccc21	> 23.2 µM
NC(=O)c1cccc2cn(-c3ccc([C@@H]4CCCNC4)cc3)nc12	> 80.6 µM

I'm hoping you can list TGI for every compound here, please.
1. COc1ccc2c3c1C(=O)CCCC3CO2 (configuration not stated)
2. Cc1cc(=O)[nH]c(NN2C(Cl)C(=O)C2c2ccccc2O)n1 (configuration not stated)
3. O=C(CC1(O)C(=O)Nc2c(Cl)cc(Cl)cc21)c1ccc(Br)cc1Br (configuration not stated)
4. COc1ccc2c(c1)/C(=C/c1c(C)nc3sc(C)nn13)C(=O)N2

1: > 100 µM; 2: > 63.2 µM; 3: 21.6 µM; 4: > 100 µM

Answer for every listed entry: what is its TGI? The entries follow.
1. Cc1ccsc1/C=N/Nc1ncccn1
2. Cc1ccc2c(=O)cc(-c3ccc(F)cc3)[nH]c2n1
3. COc1cc2c(cc1OC)-c1c3cc(O)ccc3nn[n+]1CC2
4. CCCCC(=O)OCC(=O)[C@]1(O)Cc2c(O)c3c(c(O)c2[C@@H](OC2CC(NC(=O)C(F)(F)F)C(O)C(C)O2)C1)C(=O)c1c(OC)cccc1C3=O (some centres not stated)

> 100 µM
95.1 µM
> 100 µM
32.7 µM

For every listed record, write down its TGI.
1. N#CC1C(C#N)C2(c3ccccc3)C(c3ccccc3)=NN(c3ccccc3)CC12 (configuration not stated)
2. O=C1CC(c2ccc3c(c2)OCO3)Nc2ccccc21 (configuration not stated)
3. O=[N+]([O-])C(=C1NCCN1)/C(Cl)=C(\Cl)Br
4. C[C@@]12C[C@@H](c3ccccc3O1)N1CCCCSC1=N2
5. N#CC1=C(N)N(c2ccccc2)C(c2ccco2)C1(C#N)C#N (configuration not stated)
6. CC(=O)Nc1ccc(-c2nnc(SCC(=O)Nc3ccc([N+](=O)[O-])cc3)o2)cc1
7. COC(CN1C(=O)c2cccc3cccc(c23)C1=O)OC

1. > 100 µM
2. 13.3 µM
3. 62.4 µM
4. > 100 µM
5. 45.5 µM
6. > 100 µM
7. > 100 µM
